B1: Pistol ribozyme (parent)
chain: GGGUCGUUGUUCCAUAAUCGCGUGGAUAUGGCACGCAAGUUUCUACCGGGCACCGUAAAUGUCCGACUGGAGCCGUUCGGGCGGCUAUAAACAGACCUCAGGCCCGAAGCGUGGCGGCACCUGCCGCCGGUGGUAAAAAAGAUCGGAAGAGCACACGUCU

- Variants of: B1
- experiment_description: aptazyme ON/OFF ratio, guanine; higher = stronger switching; co-transcriptional cleavage with and without guanine
value_kind: aptazyme ON/OFF ratio
// print number alone

G9C U10C C12A C13G = 1.06
U7A U8A G9A U11C C13U = 1.1
U11C C12U C13U = 1.52
U7C U8A G9A U10A C13U = 1.26
U7C U8C U10C U11G C12G C13U = 1.1

// field: aptazyme ON/OFF ratio; key: U8C C12G C13A ; value = 1.19

// field: aptazyme ON/OFF ratio; key: U7A U8A G9A U10A U11G C13G ; value = 1.18

// field: aptazyme ON/OFF ratio; key: U8A C12A C13U ; value = 1.19

// field: aptazyme ON/OFF ratio; key: U7C U8C U10A C12G C13G ; value = 1.12

// field: aptazyme ON/OFF ratio; key: U7C U8A G9C U10G U11G C12U ; value = 1.12

// field: aptazyme ON/OFF ratio; key: U7A G9C C12U ; value = 1.1

// field: aptazyme ON/OFF ratio; key: U7G U8C G9A C12A C13G ; value = 1.05

// field: aptazyme ON/OFF ratio; key: U7C U8C G9A U10A U11C C12U ; value = 1.2

// field: aptazyme ON/OFF ratio; key: U7G U8G C12U C13A ; value = 1.31

// field: aptazyme ON/OFF ratio; key: U8A U10A C12A C13G ; value = 1.08

// field: aptazyme ON/OFF ratio; key: U8G G9A U10G U11A C12U C13G ; value = 1.33

// field: aptazyme ON/OFF ratio; key: U7A U8G U10C U11A C12G C13G ; value = 1.28
